// data source = ChEMBL document CHEMBL2311431

Consider the following compounds; for each one, report its inhibition.
systemName: Prostaglandin G/H synthase 1 (Ovis aries)
testProtocol: Inhibition of ovine COX1 assessed as inhibition of PGF2a production by enzyme immunoassay
Set-up: concentration or dose not given beside the values
conditionsUsed: concentration not given here
Answers are plain numbers, in %.

Here is how some compounds turned out for inhibition.
| compoundStructure | inhibition, % |
| --- | --- |
| O=C1N/C(=N\c2nccs2)S/C1=C\c1ccc(Cl)cc1Cl | 98 |
| Cc1csc(/N=C2\NC(=O)/C(=C/c3ccccc3Cl)S2)n1 | 97 |
| COc1ccc(OC)c(/C=C2\S/C(=N/c3nccs3)NC2=O)c1 | 85 |

Provide reported inhibition for each item, in the same order as listed.
1. CN(C)c1ccc(/C=C2\S/C(=N/c3nccs3)NC2=O)cc1
2. COc1ccccc1/C=C1\S/C(=N/c2nccs2)NC1=O
3. O=C1N/C(=N\c2nc(-c3ccccc3)cs2)S/C1=C\c1ccccc1
4. Cc1csc(/N=C2\NC(=O)/C(=C/c3ccc(Cl)cc3)S2)n1
5. O=C1N/C(=N\c2nccs2)S/C1=C\c1ccc(F)cc1
6. Cc1ccc(/C=C2\S/C(=N/c3nccs3)NC2=O)cc1
7. O=C1N/C(=N\c2nccs2)S/C1=C\c1cccc(F)c1
8. O=C1N/C(=N\c2nccs2)S/C1=C\c1cccc(Br)c1

Result:
1. 50
2. 86
3. 67
4. 74
5. 44
6. 99
7. 42
8. 2
